Answer each item with its documented IC50.
system: SKBR3; test: In-vitro cytotoxicity test of compounds ([…]-GLO), SKBR3; type: cell-based; conditions: Homo sapiens, SK-BR-3; SKBR3, 72 hours
State the result as a value with its unit after it.

[in] Entry CC[C@@]1(O)C(=O)OCc2c1cc1n(c2=O)Cc2c-1nc1cc(F)c(N)c3c1c2CCC3 has what IC50?
[out] 0.0958 nM

[in] Same question, CC[C@@]1(O)C(=O)OCc2c1cc1n(c2=O)Cc2c-1nc1cc(F)c(C)c3c1c2[C@@H](N)CC3 this time
[out] 0.181 nM

Reference source for all entries: patent US20230111996A1
